Target: T1, IRF-3 5D (UniProt Q14653 1-427, S396D;S398D;S402D;T404D;S405D)
T1 sequence: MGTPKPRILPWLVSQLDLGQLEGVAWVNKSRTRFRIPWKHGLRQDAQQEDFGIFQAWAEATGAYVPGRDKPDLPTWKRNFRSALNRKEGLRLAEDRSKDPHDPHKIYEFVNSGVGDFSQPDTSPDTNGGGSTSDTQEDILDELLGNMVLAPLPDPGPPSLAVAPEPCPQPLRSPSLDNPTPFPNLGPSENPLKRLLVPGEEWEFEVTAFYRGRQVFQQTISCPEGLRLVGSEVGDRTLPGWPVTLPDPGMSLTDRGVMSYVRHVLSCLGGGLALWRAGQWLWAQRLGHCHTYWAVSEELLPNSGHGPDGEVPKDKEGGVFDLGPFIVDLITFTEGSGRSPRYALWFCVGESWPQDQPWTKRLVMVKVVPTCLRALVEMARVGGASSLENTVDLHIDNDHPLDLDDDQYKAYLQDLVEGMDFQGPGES
Experiment: fluorescence anisotropy
REPORTED_METRIC: Kd

INSERT INTO measurements (binder, data_value) VALUES
  ('PRDI 13-bp (dsDNA) DNA 1: GAGAAGTGAAAGT DNA 2: ACTTTCACTTCTC', '1200 nM');
